- assayedTarget: T1, Full length human midkine protein (human) (UniProt P21741)
- T1 sequence: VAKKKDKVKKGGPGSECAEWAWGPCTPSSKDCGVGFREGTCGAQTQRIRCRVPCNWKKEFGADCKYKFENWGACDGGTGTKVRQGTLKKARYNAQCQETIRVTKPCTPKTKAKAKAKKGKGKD
- method: cell-based or functional assay
Threshold 1000. Total Area (area under the curve of wound width, Cell Migration Assay) below it: Condition met. Total Area (area under the curve of wound width, Cell Migration Assay) at it or above: Condition not met.

INSERT INTO measurements (binder, answerlabel) VALUES
  ('Δ14 MDK (truncated human midkine lacking 14 amino acids from the C-terminus) (ligand) VAKKKDKVKKGGPGSECAEWAWGPCTPSSKDCGVGFREGTCGAQTQRIRCRVPCNWKKEFGADCKYKFENWGACDGGTGTKVRQGTLKKARYNAQCQETIRVTKPCTPK', 'Condition not met'),
  ('Δ25 MDK (truncated human midkine lacking 25 amino acids from the C-terminus) (ligand) VAKKKDKVKKGGPGSECAEWAWGPCTPSSKDCGVGFREGTCGAQTQRIRCRVPCNWKKEFGADCKYKFENWGACDGGTGTKVRQGTLKKARYNAQCQE', 'Condition not met'),
  ('Δ58 MDK (truncated human midkine lacking 58 amino acids from the C-terminus) (ligand) VAKKKDKVKKGGPGSECAEWAWGPCTPSSKDCGVGFREGTCGAQTQRIRCRVPCNWKKEFGADCK', 'Condition not met'),
  ('Δ41 MDK (truncated human midkine lacking 41 amino acids from the C-terminus) (ligand) VAKKKDKVKKGGPGSECAEWAWGPCTPSSKDCGVGFREGTCGAQTQRIRCRVPCNWKKEFGADCKYKFENWGACDGGTGTKV', 'Condition met'),
  ('Δ34 MDK (truncated human midkine lacking 34 amino acids from the C-terminus) (ligand) VAKKKDKVKKGGPGSECAEWAWGPCTPSSKDCGVGFREGTCGAQTQRIRCRVPCNWKKEFGADCKYKFENWGACDGGTGTKVRQGTLKK', 'Condition met');
